Every entry's value here was drawn from patent US20240327535A1.

Molecular target: T1, extracellular domain of human BCMA (human, UniProt Q02223 1-54)
T1 construct: amine-linked to Octet AR2G tips; also called hsBCMA; BCMA (human)
T1 sequence: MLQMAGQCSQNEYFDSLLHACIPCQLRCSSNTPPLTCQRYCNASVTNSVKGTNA
Experiment: Octet BLI; Fab 200 nM
quantityName: Kd
Be sure to follow the number with its unit.

# input binder: AB200-(2Vk31)_R2-VH-v18 (Fab, V domains shown) VH: QVQLVQSGAEVKKPGSSVKVSCKASGGSFSNYWIHWVRQAPGQGLEWMGATYRSHSDTYYAEKFKSRVTITADKSTSTAYMELSSLRSEDTAVYYCARGAVYHGYDVIDNWGQGTLVTVSS VL: DIQMTQSPSSLSASVGDRVTITCRASQSISSYLNWYQQKPGKAPKLLIYATSNLQIGVPSRFSGSGSGTDFTLTISSLQPEDFATYYCQQFRRLPWTFGQGTKLEIKR ; wanted: its Kd
3.55 nM

AB200-(2Vk31)_R2-VH-v21 (Fab, V domains shown) VH: QVQLVQSGAEVKKPGSSVKVSCKASGGTFSNYWIHWVRQAPGQGLEWMGGTYRSHSDTYYAQKFKSRVTITADKSTSTAYMELSSLRSEDTAVYYCARGAIFHGYDVIDNWGQGTLVTVSS VL: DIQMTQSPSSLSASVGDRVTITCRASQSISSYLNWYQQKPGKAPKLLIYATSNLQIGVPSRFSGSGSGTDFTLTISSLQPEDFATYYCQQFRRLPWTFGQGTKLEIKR ?
10.7 nM
